Max % Cell Kill, Fab-ZAP, NCI-H929 overview
Molecular target: T1, human SEMA4A expressed on cells (UniProt ID Q9H3S1, isoform 1) (human, UniProt Q9H3S1 33-761)
T1 sequence: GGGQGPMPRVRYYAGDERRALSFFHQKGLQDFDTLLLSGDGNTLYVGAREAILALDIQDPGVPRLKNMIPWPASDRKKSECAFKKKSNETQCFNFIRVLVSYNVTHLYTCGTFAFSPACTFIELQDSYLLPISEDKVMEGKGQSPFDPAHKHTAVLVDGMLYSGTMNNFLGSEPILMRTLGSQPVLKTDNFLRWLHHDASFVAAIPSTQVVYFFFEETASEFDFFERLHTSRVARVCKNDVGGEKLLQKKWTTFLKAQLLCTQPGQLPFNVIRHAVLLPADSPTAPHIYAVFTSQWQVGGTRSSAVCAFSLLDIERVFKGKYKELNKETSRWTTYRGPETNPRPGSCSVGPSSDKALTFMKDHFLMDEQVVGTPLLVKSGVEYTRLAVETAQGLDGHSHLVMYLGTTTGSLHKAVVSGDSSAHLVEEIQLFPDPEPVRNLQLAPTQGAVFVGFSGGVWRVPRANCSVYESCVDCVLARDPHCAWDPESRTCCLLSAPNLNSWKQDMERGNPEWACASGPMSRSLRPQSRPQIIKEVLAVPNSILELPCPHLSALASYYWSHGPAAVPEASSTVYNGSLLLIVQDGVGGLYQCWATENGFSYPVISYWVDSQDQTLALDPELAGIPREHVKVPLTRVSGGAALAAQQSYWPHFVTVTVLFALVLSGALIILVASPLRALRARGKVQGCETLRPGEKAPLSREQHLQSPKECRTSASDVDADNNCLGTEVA
Assay: cell-based or functional assay

BINDER	Max % Cell Kill, Fab-ZAP, NCI-H929 [%]
5Hg2-5Lg1 human Alya IgG1 (antibody, V domains shown, Humanised 5E3; human IgG1 Alya constant (239iCys, S442C, EU), lambda light chain; purified, unconjugated) VH: QVQLVQSGAEVKKPGASVKVSCKASGYTFTDYWMHWVRQAPGQRLEWMGAIDTSDSYTSYNQKFKGRVTITRDTSASTAYMELSSLRSEDTAVYYCARDYGNFYYYAMDYWGQGTLVTVSS VL: QAVVTQEPSLTVSPGGTVTLTCRSSTGAVTTSNYANWFQQKPGQAPRTLIYGTNNRAPWTPARFSGSLLGGKAALTLSGAQPEDEAEYYCALWYSNHWVFGGGTKLTVL	78
5Hg4-5Lg1 human Alya IgG1 (antibody, V domains shown, Humanised 5E3; human IgG1 Alya constant (239iCys, S442C, EU), lambda light chain; purified, unconjugated) VH: QVQLVQSGSELKKPGASVKVSCKASGYTFTDYWMHWVRQAPGQGLEWMGAIDTSDSYTSYNQKFKGRFVFSLDTSVSTAYLQICSLKAEDTAVYYCARDYGNFYYYAMDYWGQGTLVTVSS VL: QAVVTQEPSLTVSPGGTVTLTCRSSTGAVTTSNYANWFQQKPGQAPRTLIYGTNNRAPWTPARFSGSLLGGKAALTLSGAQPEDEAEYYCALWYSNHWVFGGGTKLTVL	56
mouse 5E3 expressed as human IgG1 Alya (antibody, V domains shown, Mouse variable domains on human IgG1 Alya constant (pEU1.22; 239iCys and S442C, EU numbering); purified, unconjugated; also called 5E3 IgG1 Alya) VH: QVQLQQPGAELVMPGASVKMSCKASGYTFTDYWMHWVKQRPGQGLEWIGAIDTSDSYTSYNQKFKGKATLTVDESSSTAYMQLSSLTSEDSAVYYCARDYGNFYYYAMDYWGQGTSVTVSS VL: QAVVTQESALTTSPGETVTLTCRSSTGAVTTSNYANWVQEKPDHLFTGLIGGTNNRAPGVPARFSGSLIGDKAALTITGAQTEDEAIYFCALWYSNHWVFGGGTKLTVL	89
5Hg2-5Lg6 human Alya IgG1 (antibody, V domains shown, Humanised 5E3; human IgG1 Alya constant (239iCys, S442C, EU), lambda light chain; purified, unconjugated) VH: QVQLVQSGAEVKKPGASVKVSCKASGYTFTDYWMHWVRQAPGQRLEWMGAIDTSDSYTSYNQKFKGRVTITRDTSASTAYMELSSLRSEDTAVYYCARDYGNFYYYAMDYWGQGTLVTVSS VL: SYELTQPSSVSVSPGQTARITCRSSTGAVTTSNYANWFQQKPGQAPVLVIYGTNNRAPGIPERFSGSSSGTTVTLTISGAQVEDEADYYCALWYSNHWVFGGGTKLTVL	22
5Hg1-5Lg2 human Alya IgG1 (antibody, V domains shown, Humanised 5E3; human IgG1 Alya constant (239iCys, S442C, EU), lambda light chain; purified, unconjugated) VH: QVQLVQSGAEVKKPGASVKVSCKASGYTFTDYWMHWVRQAPGQGLEWMGAIDTSDSYTSYNQKFKGRVTMTRDTSTSTVYMELSSLRSEDTAVYYCARDYGNFYYYAMDYWGQGTLVTVSS VL: QAVVTQEPSLTVSPGGTVTLTCRSSTGAVTTSNYANWFQQKPGQAPRTLIYGTNNRAPWTPARFSGSLLGGKAALTLLGAQPEDEAEYYCALWYSNHWVFGGGTKLTVL	74

Where do these numbers come from? They come from patent US20250152729A1.
